Values compiled from ChEMBL document CHEMBL4414672.

system: TK-10; test: Growth inhibition of human TK10 cells at 10^-5 M incubated for 48 hrs by sulforhodamine B assay; assay type: functional; settings: TK-10, 48 h, read-out: GI
Kindly supply the reported inhibition of growth at 10 µM values for the records listed here.
Give bare numbers, in %.

Reference set, count: 9
- Compound: "S=C1Nc2c(sc3ccc(Cl)cc23)C(c2ccc3ccccc3c2)N1 (stereo not given)"
  inhibition of growth at 10 µM, %: -25.5
- Compound: "O=C1Nc2c(sc3ccc(Cl)cc23)C(c2cccc([N+](=O)[O-])c2)N1 (stereo not given)"
  inhibition of growth at 10 µM, %: -4.8
- Compound: "N=C1Nc2c(sc3ccc(Cl)cc23)C(c2cccc(Br)c2)N1 (stereo not given)"
  inhibition of growth at 10 µM, %: -23.2
- Compound: "O=[N+]([O-])c1cccc(C2c3sc4ccc(Cl)cc4c3N=C3NN=CN32)c1 (stereo not given)"
  inhibition of growth at 10 µM, %: 39
- Compound: "O=C1Nc2c(sc3ccc(Cl)cc23)C(c2ccccc2O)N1 (stereo not given)"
  inhibition of growth at 10 µM, %: -18.6
- Compound: "O=C1CSC2=Nc3c(sc4ccc(Cl)cc34)C(c3ccc4ccccc4c3)N12 (stereo not given)"
  inhibition of growth at 10 µM, %: -19.4
- Compound: "N=C1Nc2c(sc3ccc(Cl)cc23)C(c2ccccc2O)N1 (stereo not given)"
  inhibition of growth at 10 µM, %: 38
- Compound: "Oc1ccccc1C1NC(=S)Nc2c1sc1ccc(Cl)cc21 (stereo not given)"
  inhibition of growth at 10 µM, %: -8.34
- Compound: "O=C1CC(=O)N(C2=Nc3c(sc4ccc(Cl)cc34)C(c3cccc([N+](=O)[O-])c3)N2)N1 (stereo not given)"
  inhibition of growth at 10 µM, %: -11.9

Moving on to another compound below.
In: Indicate its recorded inhibition of growth at 10 µM; the compound in question is N=C1Nc2c(sc3ccc(Cl)cc23)C(c2cccc([N+](=O)[O-])c2)N1 (stereo not given)
Out: 40.3
